half-life overview
assay: in vitro; assay type: in vitro ADME, human; conditions: human, serum, Table 5; human serum, 37° C.; read-out: Serum Half-life (converted)
Hey, just the number and the unit after it is fine.

Check out these entries, answers already filled in.
{"molecule": "CC(=O)[C@H]1CC[C@H]2[C@@H]3CC=C4C=C(OC(=O)CCC[N+](C)(C)C)CC[C@]4(C)[C@H]3CC[C@]12C", "half-life": "3 h"}
{"molecule": "C[C@H]1O[C@@H](O[C@H]2[C@@H](O)C[C@H](O[C@H]3[C@@H](O)C[C@H](O[C@H]4CC[C@@]5(C)[C@H](CC[C@@H]6[C@@H]5C[C@@H](OC(=O)OCOC(=O)CCCCC[N+](C)(C)C)[C@]5(C)[C@@H](C7=CC(=O)OC7)CC[C@]65O)C4)O[C@@H]3C)O[C@@H]2C)C[C@@H]2OC(=O)O[C@@H]21", "half-life": "2.8 h"}
{"molecule": "CC(=O)O[C@H](CC(=O)O[C@H]1CC[C@@]2(C)[C@H](CC[C@@H]3[C@@H]2CC[C@]2(C)[C@@H](C4=CC(=O)OC4)CC[C@]32O)C1)C[N+](C)(C)C", "half-life": "5.4 h"}
{"molecule": "CC1OC(OC2C(O)CC(OC3C(O)CC(OC4CCC5(C)C(CCC6C5CC(O)C5(C)C(C7=CC(=O)OC7)CCC65O)C4)OC3C)OC2C)CC(O)C1OC(=O)C1CCC[N+]1(C)C (stereo not drawn)", "half-life": "0.085 h"}
{"molecule": "C[n+]1cccc(C(=O)OCCc2ccc([N+](=O)[O-])cc2)c1", "half-life": "0.467 h"}

# input Check the records and state half-life for C[C@]12CC[C@H]3[C@@H](CCC4=CC(=O)CC[C@@]43C)[C@@H]1CC[C@@H]2OC(=O)OCOC(=O)CCCCC[N+](C)(C)C
# output 0.317 h

----------
assay: in vitro; assay type: in vitro ADME, human; conditions: human, serum, Table 5; human serum, 37° C.; read-out: Serum Half-life (converted)
Listed below: half-life values for each entry.
Entry rule: numbers only, all in min.

{"compound": "CC(=O)OC(CC(=O)NCCCCCCOC(=O)O[C@H]1[C@@H](O)C[C@H](O[C@H]2[C@@H](O)C[C@H](O[C@H]3[C@@H](O)C[C@H](O[C@H]4CC[C@@]5(C)[C@H](CC[C@@H]6[C@@H]5CC[C@]5(C)[C@@H](C7=CC(=O)OC7)CC[C@]65O)C4)O[C@@H]3C)O[C@@H]2C)O[C@@H]1C)C[N+](C)(C)C (some centres unmarked)", "reported-endpoint": "half-life", "readout-number": 34.8}

We now examine a further compound.
# input Look up half-life of CC1OC(OC2C(O)CC(OC3C(O)CC(OC4CCC5(C)C(CCC6C5CC(O)C5(C)C(C7=CC(=O)OC7)CCC65O)C4)OC3C)OC2C)CC(O)C1OC(=O)OCCCCCCOC(=O)C[N+](C)(C)C (centres unmarked) and report it.
# output 21

----------
test: in vitro; format: in vitro ADME, human; settings: human, serum, Table 5; human serum, 37° C.; read-out: Serum Half-life (converted)
Catalogue of compounds with associated log10 of half-life
Scale: log10; quantity: half-life; unit before log: min

{"compound": "CCCCCCCCCCCC(=O)OCn1cc(F)c(=O)n(COC(=O)OCC[N+](C)(C)C)c1=O", "log10 of half-life": 1.43}
{"compound": "CC(=O)O[C@H](CC(=O)O[C@H](C)[C@H](NC(=O)OCc1ccccc1)C(=O)OCc1ccccc1)C[N+](C)(C)C [threonine, L-isomer, HO-(O-acetyl-L-carnitine ester), N-CBZ, benzyl ester]", "log10 of half-life": 1.60}
{"compound": "COc1ccc2c(c1)c(CC(=O)OCCNC(=O)CCCCC[N+](C)(C)C)c(C)n2C(=O)c1ccc(Cl)cc1", "log10 of half-life": 3.13}

# input Identify the reported log10 of half-life for the following entry. CCCCCCCCCCCCCCCC(=O)OC(CC(=O)NCCCCCCOC(=O)OC1C(O)CC(OC2C(O)CC(OC3C(O)CC(OC4CCC5(C)C(CCC6C5CC(O)C5(C)C(C7=CC(=O)OC7)CCC65O)C4)OC3C)OC2C)OC1C)C[N+](C)(C)C (stereo not drawn)
# output 1.32

# input Consider the compound COc1cc(NC(=O)c2ccc[n+](C)c2)c(Cl)cc1C(=O)N[C@H]1CCN(CCCOc2ccc(F)cc2)C[C@H]1OC (relative stereo) and give its recorded log10 of half-life.
# output 1.78

# input Supply reported log10 of half-life belonging to this compound: CC1OC(OC2C(O)CC(OC3C(O)CC(OC4CCC5(C)C(CCC6C5CC(O)C5(C)C(C7=CC(=O)OC7)CCC65O)C4)OC3C)OC2C)CC(O)C1OC(=O)OCC[N+](C)(C)C (stereo not drawn)
# output 0.12

----------
compounds and their reported log10 of half-life
assay: in vitro; format: in vitro ADME, human; settings: human, serum, Table 5; human serum, 37° C.; read-out: Serum Half-life (converted)
The figures below represent log10 of half-life, where half-life is stated in min.

# annotated cases, reported log10 of half-life shown
{"compound": "COc1cc(N)c(Cl)cc1C(=O)N[C@H]1CC[N+](CCCOc2ccc(F)cc2)(COC(C)=O)C[C@H]1OC (relative stereo)", "log10 of half-life": 0.81}
{"compound": "COc1ccc2c(c1)c(CC(=O)OCC[N+](C)(C)CCO)c(C)n2C(=O)c1ccc(Cl)cc1", "log10 of half-life": -0.01}
{"compound": "CC1OC(OC2CCC3(C)C(CCC4C3CC(OC(=O)CCCCC[N+](C)(C)C)C3(C)C(C5=CC(=O)OC5)CCC43O)C2)CC(O)C1OC1CC(O)C(OC2CC3OC(=O)OC3C(C)O2)C(C)O1 (stereo not shown)", "log10 of half-life": 4.31}
{"compound": "C#CC[N+](C)(COC(=O)C(C)(C)C)C(C)Cc1ccccc1 (stereo not shown)", "log10 of half-life": 1.30}

# input Fill in reported log10 of half-life for this entry: COc1cc(N)c(Cl)cc1C(=O)N[C@H]1CC[N+](CCCOc2ccc(F)cc2)(COC(=O)CCCCC[N+](C)(C)C)C[C@H]1OC (relative stereo)
# output 1.78

# input Identify measured log10 of half-life associated with CC(CCCC(=O)OC1CC2C(CCC3CC(OC4CC(O)C(OC5CC(O)C(OC6CC7OC(=O)OC7C(C)O6)C(C)O5)C(C)O4)CCC32C)C2(O)CCC(C3=CC(=O)OC3)C12C)OC(=O)CCC[N+](C)(C)C (stereo not shown)
# output 4.48

# input State its log10 of half-life for this compound: C[C@]12CC[C@H]3[C@@H](CCC4=CC(=O)CC[C@@]43C)[C@@H]1CC[C@@H]2OC(=O)OCC[N+](C)(C)C
# output 1.46

----------
test: in vitro; assay type: in vitro ADME, human; conditions: human, serum, Table 5; human serum, 37° C.; read-out: Serum Half-life (converted)
In this section we review reported log10 of half-life values for a set of compounds.
Short version: log10 scale, half-life, h.

{"compound": "CC1OC(OC2C(O)CC(OC3C(O)CC(OC4CCC5(C)C(CCC6C5CC(O)C5(C)C(C7=CC(=O)OC7)CCC65O)C4)OC3C)OC2C)CC(O)C1OC(=O)CCCN(C)C (stereo not drawn) [digoxin-4'\"-4-(dimethylamino)butyrate]", "reported-endpoint": "log10 of half-life", "readout-number": 0.15}

# input Consider the compound CCCCCCCCCCCC(=O)OCn1cc(F)c(=O)[nH]c1=O . State its measured log10 of half-life.
# output -1.27

# input Entry CC(=O)O[C@H](CC(=O)NCCCCCC(=O)OCCc1ccc([N+](=O)[O-])cc1)C[N+](C)(C)C needs its log10 of half-life filled in; supply it.
# output -2.66

# input Consider the compound CCCC(=O)OCn1c(=O)c(F)cn(COC(=O)CCC[N+](C)(C)C)c1=O and give its recorded log10 of half-life.
# output 0.53

----------
Assay: in vitro
Type: in vitro ADME, human
Details: human, serum, Table 5; human serum, 37° C.; read-out: Serum Half-life (converted)
Method: Table 4 lists the serum half-lives for several model compounds and two representative pharmaceutical agent-chemical modifier complexes using an in vitro assay system described in the Experimental section below. […] Freshly defrosted human serum (3 ml, Sigma) was warmed at 37° C. for five minutes and then 60 μl of the agent-modifier complex stock solution was added with vortexing. […] Half-lives were calculated using the equation […]
reported-endpoint: half-life (h)
I only need the number, in h, no unit after it.

{"compound": "C[C@H]1O[C@@H](O[C@H]2[C@@H](O)C[C@H](O[C@H]3[C@@H](O)C[C@H](O[C@H]4CC[C@@]5(C)[C@H](CC[C@@H]6[C@@H]5C[C@@H](OC(=O)OCCCCCCOC(=O)C[N+](C)(C)C)[C@]5(C)[C@@H](C7=CC(=O)OC7)CC[C@]65O)C4)O[C@@H]3C)O[C@@H]2C)C[C@@H]2OC(=O)O[C@@H]21", "half-life (h)": 470}
{"compound": "CN(C)CC(=O)OCn1cnc2c1c(=O)n(C)c(=O)n2C", "half-life (h)": 28}

# input For the compound O=C(CCCCCN1CCOCC1)OCCc1ccc([N+](=O)[O-])cc1 , report half-life.
# output 0.00772

# input Report measured half-life; entry is C[C@]12CC[C@@H]3c4ccc(OC(=O)OCC[N+](C)(C)C)cc4CC[C@H]3[C@@H]1CC[C@@H]2O
# output 0.0256

# input Write down half-life measured for item COc1ccc2c(c1)c(CC(=O)OCCN(C)C(=O)CCCCC[N+](C)(C)C)c(C)n2C(=O)c1ccc(Cl)cc1
# output 3.4

# input Tell me measured half-life for COC(=O)Cc1c(C)n(C(=O)c2ccc(Cl)cc2)c2ccc(OC)cc12 [indomethacin methyl ester, reference compound] please.
# output 144
